- Tested on: SK-MEL-28
- Test details: NCI tumour cell line growth inhibition, 48 h
Active and inactive are the calls of the source. Rule as the data show it: active = GI50 up to about 1.1 µM and inactive = higher.
Measurement label: GI50

Consider the reported GI50 for these molecules:
INSERT INTO measurements (molecule, result) VALUES
  ('COc1cc2c[n+](C)c3c4cc(OC)c(OC(C)C)cc4ccc3c2cc1OC', '57.7 µM (inactive)'),
  ('N=S(=O)(c1ccccc1)c1ccccc1', '> 100 µM (inactive)'),
  ('Cc1n[nH]c(N)c1C(N)=O', '> 100 µM (inactive)'),
  ('COc1ccc(/C=C2\CCC(CCN(C)C)(C3=CCCC3)C2=O)cc1 (configuration not stated)', '19 µM (inactive)'),
  ('COC(=O)c1c(O)ccc2c1c1cc3ccccc3c(O)c1n2CCc1ccc(OC)c(OC)c1', '17.4 µM (inactive)');

Record GI50 per entry; entries follow.
1. O[C@@H]1C[C@H](Cl)c2c(Cl)sc(Cl)c21
2. C1=CC2=CC=CC3c4nc5ccc6ccccc6c5nc4C(=C1)C23 (configuration not stated)

Ans.
1. > 100 µM (inactive)
2. > 100 µM (inactive)

---

- System: ACHN
- Test details: NCI tumour cell line growth inhibition, 48 h
Active and inactive are the calls of the source. Cut-off read from the data, not from the text of the source: active = GI50 up to about 1.1 µM and inactive = higher. Non-standard residues stand in square brackets, D forms with d. Residues, ends and D or L forms follow the SMILES beside them. ξ: configuration not given here. *: point of attachment. X18 = COC1=CC(=O)N(C(=O)C(O*)C(C)C)C1Cc1ccccc1; ξNMe2Val = CC(C)C(C(=O)*)N(C)C; NMeV = CN[CH](C(=O)O)C(C)C
The reply should name one outcome from active, inactive

// below: answered compounds
INSERT INTO measurements (compound, tested_on, assigned_class) VALUES
  ('Cc1cccc2c1C(=O)[C@@](C)([C@]1(C)Nc3cccc(C)c3C1=O)N2', 'ACHN', 'inactive'),
  ('CC(C)(C)[Si](C)(C)O/N=C\c1cccc(O[Si](C)(C)C(C)(C)C)c1', 'ACHN', 'inactive'),
  ('COC1=CC(=O)N(C(=O)C(OC(=O)C2CCCN2C(=O)C2CCCN2C(=O)C(C(C)C)N(C)C(=O)C(NC(=O)C(C(C)C)N(C)C)C(C)C)C(C)C)C1Cc1ccccc1 (stereo not given) (ξNMe2Val-V[NMeV]PP-X18; configuration not given here)', 'ACHN', 'active'),
  ('CC(=O)OC1COC(n2ccc3cc(Br)c([N+](=O)[O-])cc32)C(OC(C)=O)C1OC(C)=O (stereo not given)', 'ACHN', 'inactive');

Qu. Called result for `CCN1C2=NCCN2S(=O)(=O)c2ccccc21`
Ans. inactive

Qu. Called result for C1=CC2=CC=CC3c4nc5ccc6ccccc6c5nc4C(=C1)C23 (stereo not given)
Ans. inactive

Qu. Called result for `O=C(O)[C@@H]1CCS(=O)(=O)N1`
Ans. inactive

Qu. Called result for `O=C/C1=C/C2=Cc3ccccc3C=C(/C=C(/C=O)C1)C2`
Ans. inactive

Qu. Called result for Cc1ccccc1C(C#N)C(=O)C(=O)Nc1cccc(Cl)c1 (stereo not given)
Ans. inactive

Qu. Called result for `O=C(N/C(=C\c1cccc([N+](=O)[O-])c1)c1nc2c(O)nc(S)nc2[nH]1)c1ccccc1`
Ans. inactive

---

- System: OVCAR-8
- Test details: NCI tumour cell line growth inhibition, 48 h
Where a name gives a salt, the structure may show the parent alone. Calls of active or inactive are those of the source. No stated cut-off is given here; in the data, active = GI50 up to about 1.1 µM and inactive = higher.
Measurement label: GI50

Consider the reported GI50 for these compounds:
INSERT INTO assay_data (compound, tested_on, result) VALUES
  ('COC1CC(O)C(OC(=O)c2ccccc2)C(C)O1 (configuration not stated)', 'OVCAR-8', '> 100 µM (inactive)'),
  ('CC1(C)OC(=O)C(c2cccs2)C(=O)O1', 'OVCAR-8', '> 100 µM (inactive)'),
  ('CC(C)CN(CC#N)CC(C)C', 'OVCAR-8', '> 100 µM (inactive)'),
  ('N#CCCN(CCCN(C(=O)Nc1ccc(NC(=O)N(CCCN(CCC#N)C(N)=O)c2ccccc2)cc1)c1ccccc1)C(N)=O', 'OVCAR-8', '> 100 µM (inactive)'),
  ('CC(C)(C)OC(=O)c1cnc(Cl)cn1', 'OVCAR-8', '38.2 µM (inactive)');

Record GI50 per entry; entries follow.
1. CC(C)(C)NC(=O)N1N=C(c2ccccc2)C1c1ccccc1 (configuration not stated)
2. O=C(O)c1ccccc1C(=O)c1ccc2c(c1)Cc1ccccc1-2
3. N=C(N)NS(=O)(=O)c1ccc(/N=N/c2c(O)c(C(=O)O)cc3ccccc23)cc1
4. COC(=O)C(Cc1nc2ccc(Cl)cc2nc1O)C(=O)C(=O)Nc1ccccc1[N+](=O)[O-] (configuration not stated)
5. Cc1cc(Cl)ccc1/N=N/C(=O)NNc1ccc(Cl)cc1C
6. CC(C)(C)/C(O)=C\c1nc2ccc(C(F)(F)F)cc2[nH]c1=O
7. CNC(C)Cc1ccccc1OC (configuration not stated) [METHOXYPHENAMINE HYDROCHLORIDE]
8. CCCCN/C(=N\C#N)N(Cc1ccccc1)Cc1ccccc1

Ans.
["40.2 µM (inactive)", "83.2 µM (inactive)", "> 100 µM (inactive)", "> 100 µM (inactive)", "13 µM (inactive)", "> 100 µM (inactive)", "> 100 µM (inactive)", "37 µM (inactive)"]

Record GI50 per entry; entries follow.
1. CSC1=C(C#N)C(=O)N(c2ccc(C)cc2)C(=S)C1C#N (configuration not stated)
2. Cc1ccc(S(=O)(=O)OCC/C(=C\[Si](C)(C)C)c2ccccc2)cc1
3. CCOC(=O)/C(C(N)=O)=C(/O)c1cnccn1
4. COc1ccc(C2C(C(=O)O)=C(CO)Oc3cc4c(cc32)OCO4)cc1 (configuration not stated)

Ans.
> 100 µM (inactive)
> 100 µM (inactive)
> 100 µM (inactive)
> 100 µM (inactive)

---

- Test system: LOX IMVI
- Test details: NCI tumour cell line growth inhibition, 48 h
Counter-ions that a name gives are not always drawn. Activity calls are given as the source filed them. Cut-off read from the data, not from the text of the source: active = GI50 up to about 1.1 µM and inactive = higher.
The reply should name one outcome from yes (1) (active), no (0) (inactive)

// below: answered compounds
INSERT INTO measurements (compound, assigned_class) VALUES
  ('CN1C[C@H](C(=O)N[C@]2(C)O[C@@]3(O)[C@@H]4CCCN4C(=O)[C@H](Cc4ccccc4)N3C2=O)C=C2c3cccc4[nH]cc(c34)C[C@H]21 [ERGOTAMINE TARTRATE]', 'no (0)'),
  ('O=C1c2cc3c(cc2CC12Cc1cc4c(cc1C2=O)CCC4)CCCC3 (centres undefined)', 'no (0)'),
  ('Cc1nc(Cl)c(CBr)c(Cl)n1', 'yes (1)'),
  ('CCc1c(OC(C)=O)c2c(NC3OCC(OC(C)=O)C(OC(C)=O)C3OC(C)=O)nc(SC)nc2oc1=O (centres undefined)', 'no (0)');

Qu. Called result for COC1[C@@H](OC(C)=O)[C@@H](NC(=O)C(Cl)(Cl)Cl)C(I)[C@@H](N2C(=O)c3ccccc3C2=O)[C@H]1OC (some centres undefined)
Ans. no (0)

Qu. Called result for CCOC(=O)C(CNc1ccc(O)cc1)NC(=O)c1ccccc1 (centres undefined)
Ans. no (0)

Qu. Called result for `CCOc1ccc(-n2c(=O)n3c(Nc4ccc(Cl)cc4)nc4c(c(=O)n(C)c(=O)n4C)n3c2=O)cc1`
Ans. no (0)

Qu. Called result for `CN/C(=N\CCSCc1nc[nH]c1C)NC#N`
Ans. no (0)

Qu. Called result for `O=C(CC(=O)N(C(=O)c1ccccc1)c1ccc(Cl)cc1)N/N=C\c1ccccc1O`
Ans. no (0)

---

- System: SF-295
- Test details: NCI tumour cell line growth inhibition, 48 h
The source made the active and inactive calls. Cut-off read from the data, not from the text of the source: active = GI50 up to about 1.1 µM and inactive = higher.
Measurement label: GI50

INSERT INTO results (compound, measurement_label, result) VALUES
  ('CN(C)CCNC(=O)C(C)(C)Oc1ccc(C(=O)c2ccc(Cl)cc2)cc1Cl', 'GI50', '10.6 µM (inactive)'),
  ('CN(C)C(=S)/N=c1\ss/c(=N\C(=S)N(C)C)n1-c1ccc2c(c1)OCO2', 'GI50', '> 100 µM (inactive)'),
  ('COc1cc(CCCOC(=O)/C=C/c2ccc(O)c(O)c2)cc(O)c1O', 'GI50', '35.1 µM (inactive)'),
  ('O=c1[nH]nc(NCc2ccccc2)c2nnn(Cc3ccccc3)c12', 'GI50', '> 100 µM (inactive)'),
  ('CCOC(=O)/C(C(N)=O)=C(/O)c1cnccn1', 'GI50', '> 100 µM (inactive)');

Record GI50 per entry; entries follow.
1. COc1cc(/C=C/C(=O)N[C@@H]2C(=O)N3[C@@H]2SC(C)(C)[C@@H]3C(=O)O)ccc1O
2. C=CCC1C(O[Si](C)(C)C(C)(C)C)C(CO[Si](C)(C)C(C)(C)C)OC1n1ccc(=O)[nH]c1=O (configuration not stated)
3. CCCCCCCCCCCCCC1CCC(CC)N1 (configuration not stated)
4. Clc1ccc2c(SCC3CO3)c3ccccc3nc2c1 (configuration not stated)
5. Oc1ccccc1C(c1cc2c(cc1O)OCO2)N1CCOCC1 (configuration not stated)
6. Fc1cccc(Cl)c1C1SCc2nc3cc4ccccc4cc3n21 (configuration not stated)
7. O=C(O)CC12C3C4C5C3C1C5C42 (configuration not stated)

Ans.
> 100 µM (inactive)
1.78 µM (inactive)
18.6 µM (inactive)
16.5 µM (inactive)
20.6 µM (inactive)
62.7 µM (inactive)
> 100 µM (inactive)
